Taken from ChEMBL document CHEMBL1156593.

# target.entity: Intercellular adhesion molecule 1 (Homo sapiens)
# assay.info: Inhibition of sICAM1/LFA1 interaction-mediated human THP1 cell adhesion at 12.50 ug/mL after 1 hr by ELISA
# Assay type: cell-based
# condition.info: THP-1
value.kind: inhibition (%)
# output: bare number, implied unit %

Sample answers from the record:
1. CC(C)CNC(=O)/C=C/CCCC/C=C/c1ccc2c(c1)OCO2 [RETROFRACTAMIDE C] : 35.9
2. O=C(/C=C/CCCC/C=C/c1ccc2c(c1)OCO2)N1CCCCC1 : 70.2
3. CCCCC/C=C/C=C/C(=O)NCC(C)C : 46.4
4. CC(C)CNC(=O)/C=C/C=C/CCCCCC/C=C/c1ccc2c(c1)OCO2 : 31.7
5. CC(C)CNC(=O)/C=C/CCCCCC/C=C/c1ccc2c(c1)OCO2 [PIPERCHABAMIDE D] : 26.9
6. O=C(/C=C/C=C/CC/C=C/c1ccc2c(c1)OCO2)N1CCCCC1 [DEHYDROPIPERNOLINE] : 57.7
7. CC[C@H](C)C(=O)O[C@H]1C[C@@H](C)C=C2C=C[C@H](C)[C@H](CC[C@@H]3C[C@@H](O)CC(=O)O3)[C@H]21 : 61.4
8. O=C(/C=C/C=C\CC/C=C/c1ccc2c(c1)OCO2)N1CCCCC1 : 58.4

Moving on to another compound below.
Exam item: GET /values?readout=inhibition&item= `O=C(CCCCCC/C=C/c1ccc2c(c1)OCO2)N1CCCCC1`
Marked response: 46.5
